Experiment: In vitro binding to hydroxyapatite
Conditions: 20 mg hydroxyapatite in saline, 10 min at room temperature
Values of Hydroxyapatite Binding (%) greater than or equal to 90% map to yes; values below map to no.

molecule: O=C([O-])CN(CCN(CC(=O)[O-])Cc1cc(CCC(=O)O)ccc1[O-])Cc1cc(CCC(=O)O)ccc1[O-].[68Ga+3] [[^68Ga]HBED-CC, reference compound]
group-label: no
//
molecule: O=C([O-])CN(CCN(CC(=O)[O-])Cc1cc(CCC(=O)NC(P(=O)(O)O)P(=O)(O)O)ccc1[O-])Cc1cc(CCC(=O)NCCNC(=O)CN2CCN(CC(=O)O)CCN(CC(=O)O)CCN(CC(=O)O)CC2)ccc1[O-].[68Ga+3] [[^68Ga]1h]
group-label: yes
//
molecule: O=C([O-])CN(CCN(CC(=O)[O-])Cc1cc(CCC(=O)N[C@@H](CC(=O)O)C(=O)O)ccc1[O-])Cc1cc(CCC(=O)NC(P(=O)(O)O)P(=O)(O)O)ccc1[O-].[68Ga+3] [[^68Ga]1e]
group-label: yes
//
molecule: [18F-].[Na+] [[^18F]NaF, reference compound]
group-label: no

###

Test: In vivo biodistribution in mice
Design: species or system normal CD-1 male mice
Conditions: iv, 2 min post injection
reported-property: Biodistribution: Heart (% dose/g)

compound: O=C([O-])CN(CCN(CC(=O)[O-])Cc1cc(CCC(=O)NC(P(=O)(O)O)P(=O)(O)O)ccc1[O-])Cc1cc(CCC(=O)NCCCCCC(=O)NCCCC[C@H](NC(=O)N[C@@H](CCC(=O)O)C(=O)O)C(=O)O)ccc1[O-].[68Ga+3] [[^68Ga]1g]
observed-result: 3.13
--
compound: O=C([O-])CN(CCN(CC(=O)[O-])Cc1cc(CCC(=O)NC(P(=O)(O)O)P(=O)(O)O)ccc1[O-])Cc1cc(CCC(=O)NCC(=O)O)ccc1[O-].[68Ga+3] [[^68Ga]1c]
observed-result: 4.57
--
compound: O=C([O-])CN(CCN(CC(=O)[O-])Cc1cc(CCC(=O)O)ccc1[O-])Cc1cc(CCC(=O)O)ccc1[O-].[68Ga+3] [[^68Ga]HBED-CC, reference compound]
observed-result: 2.74
--
compound: O=C([O-])CN(CCN(CC(=O)[O-])Cc1cc(CCC(=O)NC(P(=O)(O)O)P(=O)(O)O)ccc1[O-])Cc1cc(CCC(=O)NC(P(=O)(O)O)P(=O)(O)O)ccc1[O-].[68Ga+3] [[^68Ga]2]
observed-result: 4.13
--
compound: O=C([O-])CN(CCN(CC(=O)[O-])Cc1cc(CCC(=O)N[C@@H](CC(=O)O)C(=O)O)ccc1[O-])Cc1cc(CCC(=O)NC(P(=O)(O)O)P(=O)(O)O)ccc1[O-].[68Ga+3] [[^68Ga]1e]
observed-result: 2.55

###

Test: In vivo biodistribution in mice
Set-up: species or system normal CD-1 male mice
Settings: iv, 30 min (0.5 hr) post injection
Experimental: Biodistribution experiments were performed by intravenously administering ^68Ga labeled 1a-h, 2, 3, BPAMD, and [^18F]NaF into normal, healthy male CD-1 mice (25-30 g). The injection activity was 20-30 μCi/animal. […] Organs of interest were harvested, weighed, and counts of radioactivity were measured by a gamma counter. The biodistribution of each sample was calculated as a percentage of the injected dose per gram of wet tissue weight (% ID/g). […]
reported-property: Biodistribution: Spleen (% dose/g)

compound: O=C([O-])CN(CCN(CC(=O)[O-])Cc1cc(CCC(=O)NC(P(=O)(O)O)P(=O)(O)O)ccc1[O-])Cc1cc(CCC(=O)NC(P(=O)(O)O)P(=O)(O)O)ccc1[O-].[68Ga+3] [[^68Ga]2]
unit: % dose/g
observed-result: 0.48
//
compound: O=C([O-])CN(CCN(CC(=O)[O-])Cc1cc(CCC(=O)N[C@@H](CC(=O)O)C(=O)O)ccc1[O-])Cc1cc(CCC(=O)NC(P(=O)(O)O)P(=O)(O)O)ccc1[O-].[68Ga+3] [[^68Ga]1e]
unit: % dose/g
observed-result: 0.19
//
compound: O=C([O-])CN(CCN(CC(=O)[O-])Cc1cc(CCC(=O)NC(P(=O)(O)O)P(=O)(O)O)ccc1[O-])Cc1cc(CCC(=O)NCCCNC(=O)CCc2ccc(O)c(CN(CCN(CC(=O)O)Cc3cc(CCC(=O)NC(P(=O)(O)O)P(=O)(O)O)ccc3O)CC(=O)O)c2)ccc1[O-].[68Ga+3] [[^68Ga]3]
unit: % dose/g
observed-result: 8.33
//
compound: O=C([O-])CN(CCN(CC(=O)[O-])Cc1cc(CCC(=O)O)ccc1[O-])Cc1cc(CCC(=O)O)ccc1[O-].[68Ga+3] [[^68Ga]HBED-CC, reference compound]
unit: % dose/g
observed-result: 0.26

###

# Lookup of reported bone to muscle ratio keyed by entry
Experiment: In vivo biodistribution in mice
Parameters: species or system normal CD-1 male mice
Conditions: iv, 120 min

compound: O=C([O-])CN(CCN(CC(=O)[O-])Cc1cc(CCC(=O)N[C@@H](CCC(=O)O)C(=O)O)ccc1[O-])Cc1cc(CCC(=O)NC(P(=O)(O)O)P(=O)(O)O)ccc1[O-].[68Ga+3] [[^68Ga]1f]
bone to muscle ratio: 374
--
compound: O=C([O-])CN(CCN(CC(=O)[O-])Cc1cc(CCC(=O)NC(P(=O)(O)O)P(=O)(O)O)ccc1[O-])Cc1cc(CCC(=O)NC2C(O)OC(CO)C(O)C2O)ccc1[O-].[68Ga+3] (stereo not drawn) [[^68Ga]1b]
bone to muscle ratio: 197
--
compound: O=C([O-])CN(CCN(CC(=O)[O-])Cc1cc(CCC(=O)N[C@@H](CC(=O)O)C(=O)O)ccc1[O-])Cc1cc(CCC(=O)NC(P(=O)(O)O)P(=O)(O)O)ccc1[O-].[68Ga+3] [[^68Ga]1e]
bone to muscle ratio: 411

###

Assay: In vivo biodistribution in mice
Parameters: species or system normal CD-1 male mice
Conditions: iv, 60 min (1 hr) post injection
reported-property: Biodistribution: Skin (% dose/g)

molecule: O=C([O-])CN(CCN(CC(=O)[O-])Cc1cc(CCC(=O)O)ccc1[O-])Cc1cc(CCC(=O)O)ccc1[O-].[68Ga+3] [[^68Ga]HBED-CC, reference compound]
unit: % dose/g
observed-result: 0.09
//
molecule: O=C([O-])CN(CCN(CC(=O)[O-])Cc1cc(CCC(=O)NC(P(=O)(O)O)P(=O)(O)O)ccc1[O-])Cc1cc(CCC(=O)NC(P(=O)(O)O)P(=O)(O)O)ccc1[O-].[68Ga+3] [[^68Ga]2]
unit: % dose/g
observed-result: 0.38
//
molecule: O=C([O-])CN(CCN(CC(=O)[O-])Cc1cc(CCC(=O)NC(P(=O)(O)O)P(=O)(O)O)ccc1[O-])Cc1cc(CCC(=O)O)ccc1[O-].[68Ga+3] [[^68Ga]1a]
unit: % dose/g
observed-result: 0.19
//
molecule: O=C(O)CN1CCN(CC(=O)O)CCN(CC(=O)NC(P(=O)(O)O)P(=O)(O)O)CCN(CC(=O)O)CC1.[68Ga] [[^68Ga]BPAMD, reference compound]
unit: % dose/g
observed-result: 0.60
//
molecule: O=C([O-])CN(CCN(CC(=O)[O-])Cc1cc(CCC(=O)NC(P(=O)(O)O)P(=O)(O)O)ccc1[O-])Cc1cc(CCC(=O)NCCCNC(=O)CCc2ccc(O)c(CN(CCN(CC(=O)O)Cc3cc(CCC(=O)NC(P(=O)(O)O)P(=O)(O)O)ccc3O)CC(=O)O)c2)ccc1[O-].[68Ga+3] [[^68Ga]3]
unit: % dose/g
observed-result: 0.41
//
molecule: O=C([O-])CN(CCN(CC(=O)[O-])Cc1cc(CCC(=O)N[C@@H](CC(=O)O)C(=O)O)ccc1[O-])Cc1cc(CCC(=O)NC(P(=O)(O)O)P(=O)(O)O)ccc1[O-].[68Ga+3] [[^68Ga]1e]
unit: % dose/g
observed-result: 0.12
//
molecule: O=C([O-])CN(CCN(CC(=O)[O-])Cc1cc(CCC(=O)NC(P(=O)(O)O)P(=O)(O)O)ccc1[O-])Cc1cc(CCC(=O)NCCNC(=O)CN2CCN(CC(=O)O)CCN(CC(=O)O)CCN(CC(=O)O)CC2)ccc1[O-].[68Ga+3] [[^68Ga]1h]
unit: % dose/g
observed-result: 0.11
//
molecule: O=C([O-])CN1CCN(CC(=O)[O-])CCN(CC(=O)NCCNC(=O)CCc2ccc(O)c(CN(CCN(CC(=O)O)Cc3cc(CCC(=O)NC(P(=O)(O)O)P(=O)(O)O)ccc3O)CC(=O)O)c2)CCN(CC(=O)[O-])CC1.[177Lu+3] [[^177Lu]1h]
unit: % dose/g
observed-result: 0.11
//
molecule: C[C@H](NC(=O)CCc1ccc([O-])c(CN(CCN(CC(=O)[O-])Cc2cc(CCC(=O)NC(P(=O)(O)O)P(=O)(O)O)ccc2[O-])CC(=O)[O-])c1)C(=O)O.[68Ga+3] [[^68Ga]1d]
unit: % dose/g
observed-result: 0.13
